- TARGET: ΔF508-CFTR (Homo sapiens, UniProt P13569, DEL508-508)
- Construct: host or cells: CFBE41o-, doxycycline-inducible
- Sequence (P13569 with tags, fused parts or gaps DEL508-508): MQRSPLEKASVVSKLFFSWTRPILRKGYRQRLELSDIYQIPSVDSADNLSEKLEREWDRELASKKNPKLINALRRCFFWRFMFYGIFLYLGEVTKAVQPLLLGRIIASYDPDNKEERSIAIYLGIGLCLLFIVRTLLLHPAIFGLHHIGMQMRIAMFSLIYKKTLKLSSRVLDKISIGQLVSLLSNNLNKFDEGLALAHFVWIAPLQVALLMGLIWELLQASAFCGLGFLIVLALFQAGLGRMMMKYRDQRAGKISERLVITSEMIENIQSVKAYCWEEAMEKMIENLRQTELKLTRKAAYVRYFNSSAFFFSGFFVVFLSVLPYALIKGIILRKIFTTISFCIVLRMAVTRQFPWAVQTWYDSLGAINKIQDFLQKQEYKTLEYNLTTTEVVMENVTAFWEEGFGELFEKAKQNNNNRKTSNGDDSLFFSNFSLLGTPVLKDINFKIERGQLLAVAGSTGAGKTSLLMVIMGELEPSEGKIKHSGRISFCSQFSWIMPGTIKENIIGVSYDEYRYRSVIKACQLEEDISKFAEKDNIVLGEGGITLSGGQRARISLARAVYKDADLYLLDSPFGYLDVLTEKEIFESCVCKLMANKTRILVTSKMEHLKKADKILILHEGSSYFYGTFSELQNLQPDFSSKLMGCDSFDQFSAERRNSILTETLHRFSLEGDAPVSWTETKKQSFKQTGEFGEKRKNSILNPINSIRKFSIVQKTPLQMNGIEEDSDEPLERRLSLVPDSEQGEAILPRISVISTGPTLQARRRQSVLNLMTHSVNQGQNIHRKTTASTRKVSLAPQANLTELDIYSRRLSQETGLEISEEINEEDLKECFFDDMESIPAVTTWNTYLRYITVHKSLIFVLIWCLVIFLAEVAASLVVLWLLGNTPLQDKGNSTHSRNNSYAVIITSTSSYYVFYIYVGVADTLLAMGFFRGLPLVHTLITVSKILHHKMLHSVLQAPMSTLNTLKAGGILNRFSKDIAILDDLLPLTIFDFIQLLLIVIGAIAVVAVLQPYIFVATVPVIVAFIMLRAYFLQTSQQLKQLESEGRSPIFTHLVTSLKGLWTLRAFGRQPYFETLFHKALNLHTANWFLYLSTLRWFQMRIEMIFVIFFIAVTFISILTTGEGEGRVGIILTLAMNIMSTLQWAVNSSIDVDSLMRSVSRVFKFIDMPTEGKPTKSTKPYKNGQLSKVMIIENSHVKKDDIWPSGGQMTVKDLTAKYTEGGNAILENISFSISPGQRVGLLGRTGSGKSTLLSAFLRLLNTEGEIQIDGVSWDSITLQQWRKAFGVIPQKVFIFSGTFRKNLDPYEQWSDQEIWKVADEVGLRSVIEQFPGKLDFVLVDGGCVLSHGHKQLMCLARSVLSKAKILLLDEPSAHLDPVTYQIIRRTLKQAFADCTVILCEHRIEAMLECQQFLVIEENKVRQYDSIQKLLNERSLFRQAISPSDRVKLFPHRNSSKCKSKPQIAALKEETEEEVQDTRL
- ASSAY_SUMMARY: CFTR cell surface levels using HRP-tagged ΔF508-CFTR expressing CFBE cells, in the presence of a co-corrector
- Type: cell-based
- EXPERIMENTAL_PARAMETERS: HRP-tagged ΔF508-CFTR CFBE cells, in the presence of 3 μM co-corrector
Measured % Activation, listed per entry for reference.
MEASURED_ENDPOINT: % Activation

                                   compound                                    target  endpoint_result
0  COCC1CCN(c2cc(C(=O)NS(C)(=O)=O)nc3c2c(C(C)C)nn3-c2cccc(C)c2)CC1 [Compound 156]  ΔF508-CFTR (Homo sapiens, UniProt P13569, DEL508-508)          636.47%
1  CC(C)c1nn(-c2cccc(N3CCC3)c2)c2nc(C(=O)NS(C)(=O)=O)cc(-c3ccc(N4CCOCC4)cc3)c12 [Compound 10]  ΔF508-CFTR (Homo sapiens, UniProt P13569, DEL508-508)           606.5%
2  CC(C)c1nn(-c2cccc(N3CCOCC3)c2)c2nc(C(=O)NS(C)(=O)=O)cc(-c3ccc(N(C)C4CCOCC4)cc3)c12 [Compound 97]  ΔF508-CFTR (Homo sapiens, UniProt P13569, DEL508-508)          692.82%
3  COCC1(F)CCN(c2cc(C(=O)NS(C)(=O)=O)nc3c2c(C(C)C)nn3-c2ccc(F)cc2)CC1 [Compound 345]  ΔF508-CFTR (Homo sapiens, UniProt P13569, DEL508-508)           301.1%
4  COC1CCN(C2CCN(c3cc(C(=O)NS(N)(=O)=O)nc4c3c(C3CCC3)nn4-c3ccc(F)cc3)CC2)CC1 [Compound 630]  ΔF508-CFTR (Homo sapiens, UniProt P13569, DEL508-508)          593.42%
5  COCC1CCN(c2cc(C(=O)NS(C)(=O)=O)nc3c2c(C(C)C)nn3CC2CCC2)CC1 [Compound 262]  ΔF508-CFTR (Homo sapiens, UniProt P13569, DEL508-508)          420.17%
6  CN(C)S(=O)(=O)NC(=O)c1cc(-c2ccc(N3CCC(C#N)CC3)nc2)c2c(C3CCC3)nn(-c3ccccc3)c2n1 [Compound 539]  ΔF508-CFTR (Homo sapiens, UniProt P13569, DEL508-508)           429.3%

---

- TARGET: ΔF508-CFTR (Homo sapiens, UniProt P13569, DEL508-508)
- Construct: host or cells: CFBE41o-, doxycycline-inducible
- ASSAY_SUMMARY: CFTR cell surface levels using HRP-tagged ΔF508-CFTR expressing CFBE cells, intrinsic corrector capacity
- Assay type: cell-based
- Parameters: concentration or dose not given beside the values
- EXPERIMENTAL_PARAMETERS: HRP-tagged ΔF508-CFTR expressing CFBE41o- cells; compound alone (intrinsic corrector capacity); 20 hours at 33° C.
// NB: equality with 300% counts as 0.0; only % Activation strictly below is 1.0

>>> print(df.to_string())
                                    compound  assigned_class
 0  COCCN(C)c1ccc(-c2cc(C(=O)NS(C)(=O)=O)nc3c2c(C(C)C)nn3-c2cccc(N3CCOCC3)c2)cc1             0.0
 1  CS(=O)(=O)NC(=O)c1cc(N2CCC(N3CCN(C4CC4)CC3)CC2)c2c(C3CCC3)nn(-c3ccccc3)c2n1             0.0
 2  COCCS(=O)(=O)NC(=O)c1cc(N2CCC(COC)CC2)c2c(C(C)C)nn(CC3CCC3)c2n1             1.0
 3  CC(C)c1nn(-c2ccnc(N3CCCC3)c2)c2nc(C(=O)NS(C)(=O)=O)cc(-c3ccc(N4CCC(C#N)CC4)cc3)c12             0.0
 4  Cc1cccc(-n2nc(C(C)C)c3c(N4CCCCC4)cc(C(=O)NS(C)(=O)=O)nc32)c1             1.0
 5  CN(c1ccc(-c2cc(C(=O)NS(C)(=O)=O)nc3c2c(C2CCC2)nn3-c2ccccc2)cn1)C1CCOCC1             1.0
 6  CC(C)c1nn(C2CCCCC2)c2nc(C(=O)NS(C)(=O)=O)cc(-c3cnc(N(C)C4CCOCC4)nc3)c12             1.0
 7  CC(C)c1nn(-c2cccc(C(F)(F)F)c2)c2nc(C(=O)NS(C)(=O)=O)cc(-c3ccc(N4CCC(C#N)CC4)nc3)c12             1.0
 8  CC1(C)CC(c2nn(-c3ccccc3)c3nc(C(=O)NS(C)(=O)=O)cc(-c4ccc(N5CCC(C#N)CC5)nc4)c23)C1             1.0
 9  O=C(NS(=O)(=O)C1COC1)c1cc(N2CCC(N3CCOCC3)CC2)c2c(C3CCC3)nn(-c3ccc(F)cc3)c2n1             1.0
10  COCCS(=O)(=O)NC(=O)c1cc(N2CCN(C(C)C)CC2)c2c(C3CCC3)nn(-c3ccccc3)c2n1             1.0
11  CS(=O)(=O)NC(=O)c1cc(N2CCC(OC3CCCC3)CC2)c2c(C3CCC3)nn(-c3ccccc3)c2n1             1.0
12  CC(C)c1nn(-c2cccc(N3CCC3)c2)c2nc(C(=O)NS(C)(=O)=O)cc(-c3ccc(N4CCOCC4)cc3)c12             0.0
13  COCCOCC1(F)CCCN(c2cc(C(=O)NS(C)(=O)=O)nc3c2c(C2CCC2)nn3-c2ccccc2)C1 (centres unmarked)             1.0

---

Measured % Activation, listed per entry for reference.
- TARGET: ΔF508-CFTR (Homo sapiens, UniProt P13569, DEL508-508)
- Construct: host or cells: CFBE41o-, doxycycline-inducible
- ASSAY_SUMMARY: CFTR cell surface levels using HRP-tagged ΔF508-CFTR expressing CFBE cells, in the presence of a co-corrector
- Format: cell-based
- EXPERIMENTAL_PARAMETERS: HRP-tagged ΔF508-CFTR CFBE cells, in the presence of 3 μM co-corrector
MEASURED_ENDPOINT: % Activation

In [3]: df
Out[3]:
                                   molecule  measured_endpoint  endpoint_result
0  CC(C)c1nn(-c2ccc(F)cc2)c2nc(C(=O)NS(C)(=O)=O)cc(N3CCC4(CCO4)CC3)c12 [Compound 177]       % Activation           263.9%
1  Cc1nn(-c2cc(F)cc(F)c2)c2nc(C(=O)NS(C)(=O)=O)cc(-c3ccc(N4CCOCC4)cc3)c12 [Compound 23]       % Activation          468.85%
2  CC(C)Oc1nn(C2CCCCC2)c2nc(C(=O)NS(=O)(=O)N(C)C)cc(-c3ccc(N4CCN(C(C)C)CC4)cc3)c12 [Compound 534]       % Activation          289.35%
3  Cc1nn(-c2ccccc2)c2nc(C(=O)NS(C)(=O)=O)cc(-c3ccc(N4CCC(N(C)C)C4)cc3)c12 (stereo not shown) [Compound 100]       % Activation           340.6%

---

Measured pEC50, listed per entry for reference.
- TARGET: ΔF508-CFTR (Homo sapiens, UniProt P13569, DEL508-508)
- Construct: host or cells: CFBE41o-, doxycycline-inducible
- ASSAY_SUMMARY: CFTR cell surface levels using HRP-tagged ΔF508-CFTR expressing CFBE cells, in the presence of a co-corrector
- Format: cell-based
- EXPERIMENTAL_PARAMETERS: HRP-tagged ΔF508-CFTR CFBE cells, in the presence of 3 μM co-corrector; read-out: EC50
pEC50: −log10 of the molar value.
MEASURED_ENDPOINT: pEC50

                                   compound  endpoint_result
0  COc1cc(-n2nc(C3CCC3)c3c(N4CCC(N5CCOCC5)CC4)cc(C(=O)NS(C)(=O)=O)nc32)ccn1 [Compound 474]             6.28
1  Cc1cccc(-n2nc(C3CCC3)c3c(N4CCC(N5CCOCC5)CC4)cc(C(=O)NS(C)(=O)=O)nc32)c1 [Compound 509]             6.93
2  CN(C)S(=O)(=O)NC(=O)c1cc(N2CCC3(CC2)CCN(C2COC2)CC3)c2c(C3CCC3)nn(-c3ccc(F)cc3)c2n1 [Compound 614]             6.77
3  CC(C)Oc1nn(-c2ccccc2)c2nc(C(=O)NS(=O)(=O)C3CC3)cc(-c3ccc(N4CCOCC4)cc3)c12 [Compound 225]             6.24
4  CC(C)c1nn(-c2ccc(F)cc2)c2nc(C(=O)NS(C)(=O)=O)cc(OCCC3CCCCN3C)c12 (stereo not shown) [Compound 305]             5.61
5  CS(=O)(=O)NC(=O)c1cc(N2CCC(OC3CCCCC3)CC2)c2c(C3CCC3)nn(-c3ccccc3)c2n1 [Compound 229]             6.44
6  CC(C)Oc1nn(C2CCCCC2)c2nc(C(=O)NS(C)(=O)=O)cc(-c3ccc(C(=O)N4CCN(C)CC4)cc3)c12 [Compound 422]             6.69
